EXPERIMENTAL SYSTEM: hCB1 (Homo sapiens, UniProt P21554)
Sequence (P21554 whole entry): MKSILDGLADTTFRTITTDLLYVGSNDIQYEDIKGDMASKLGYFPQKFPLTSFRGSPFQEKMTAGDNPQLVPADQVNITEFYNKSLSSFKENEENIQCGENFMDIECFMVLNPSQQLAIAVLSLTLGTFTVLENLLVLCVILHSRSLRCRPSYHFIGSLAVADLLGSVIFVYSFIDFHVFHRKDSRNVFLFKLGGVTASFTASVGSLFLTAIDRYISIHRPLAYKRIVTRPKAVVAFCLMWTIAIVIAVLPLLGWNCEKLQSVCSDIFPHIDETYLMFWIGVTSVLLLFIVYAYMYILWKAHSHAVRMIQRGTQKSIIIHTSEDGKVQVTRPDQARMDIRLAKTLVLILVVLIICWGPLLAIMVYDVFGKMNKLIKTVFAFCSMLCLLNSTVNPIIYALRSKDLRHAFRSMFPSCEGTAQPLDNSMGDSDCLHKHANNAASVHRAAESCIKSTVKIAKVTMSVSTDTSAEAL
PROCEDURE DETAILS: In vitro binding assay using hCB1-CHO membranes, [3H]-CP-55,940 displacement (Protocol II)
Set-up: expressed in transfected cells; host or cells: CHO (hCB1-CHO, generated in-house)
Give % Displacement Protocol II for every item shown.
Mention the unit after the number when you answer.

Worked cases, % Displacement Protocol II given:
{"COMPOUND": "CCCCCn1nc(C(=O)NC(C)(C)c2ccccc2)c2c1C1CC3CC(CC2C3)C1 [Example 190b]", "% Displacement Protocol II": "100%"}
{"COMPOUND": "O=C(NN1CCCCC1)c1nn(-c2ccccc2)c2c1C1CC3CC(C1)CC2C3", "% Displacement Protocol II": "29.65%"}
{"COMPOUND": "O=C(NN1CCCCC1)c1nn(-c2ccccc2Br)c2c1C1CC3CC(C1)CC2C3", "% Displacement Protocol II": "5.75%"}
{"COMPOUND": "O=C(NCc1ccc(Cl)cc1)c1nn(-c2ccc(Cl)cc2)c2c1C1CC3CC(C1)CC2C3", "% Displacement Protocol II": "25.76%"}
{"COMPOUND": "COC(=O)[C@H](NC(=O)c1nn(-c2ccc(F)cc2F)c2c1C1CCC2C1)c1ccccc1 (some centres unmarked)", "% Displacement Protocol II": "88.02%"}

Take each entry in turn and give its % Displacement Protocol II.
1. O=C(NCc1ccc(F)cc1)c1nn(-c2ccc(Cl)cc2)c2c1C1CC3CC(C1)CC2C3
2. C[C@H](NC(=O)c1n[nH]c2c1C1(c3ccc(F)cc3F)CCC2C1)c1ccccc1 (some centres unmarked)
3. O=C(NC12CC3CC(CC(C3)C1)C2)c1nn(-c2ccc(F)cc2)c2c1C1CC3CC(C1)CC2C3
4. O=C(NCC1CCOCC1)c1nn(-c2ccc(F)cc2F)c2c1C1CCC2C1 (centres unmarked)
5. O=C(Nc1cccc(Cl)c1)c1nn(-c2ccc(Cl)cc2)c2c1C1CCC2C1 (centres unmarked)
6. O=C(NNc1ccc(Cl)c(Cl)c1)c1nn(-c2ccc(Cl)cc2)c2c1C1CCC2C1 (centres unmarked)

["27.70%", "69.79%", "70.12%", "13.83%", "1.38%", "30.79%"]

* * *

MEASUREMENT KIND: melting point

As a guide, the following entries are already answered.
{"COMPOUND": "O=C(NCc1ccc(F)cc1)c1nn(-c2ccc(Cl)cc2Cl)c2c1C1CC3CC(C1)CC2C3", "MEAS VALUE": "68 to 70 °C"}
{"COMPOUND": "CC12CCC(c3c(C(=O)NC45CC6CC(CC(C6)C4)C5)nn(-c4ccc(F)cc4F)c31)C2(C)C (stereo not shown)", "MEAS VALUE": "162 to 165 °C"}
{"COMPOUND": "O=C(NCc1ccc(Cl)cc1)c1nn(-c2ccc(Cl)cc2)c2c1C1CCC2C1 (stereo not shown)", "MEAS VALUE": "157 to 160 °C"}

Please indicate melting point recorded for O=C(NCc1ccccc1Cl)c1nn(-c2ccc(Cl)cc2Cl)c2c1C1CCC2C1 (stereo not shown) 117 to 120 °C

* * *

Would you kindly list inhibition at 0.3 µM for each of these compounds?
EXPERIMENTAL SYSTEM: hCB2 (Homo sapiens)
Sequence (P34972 whole entry): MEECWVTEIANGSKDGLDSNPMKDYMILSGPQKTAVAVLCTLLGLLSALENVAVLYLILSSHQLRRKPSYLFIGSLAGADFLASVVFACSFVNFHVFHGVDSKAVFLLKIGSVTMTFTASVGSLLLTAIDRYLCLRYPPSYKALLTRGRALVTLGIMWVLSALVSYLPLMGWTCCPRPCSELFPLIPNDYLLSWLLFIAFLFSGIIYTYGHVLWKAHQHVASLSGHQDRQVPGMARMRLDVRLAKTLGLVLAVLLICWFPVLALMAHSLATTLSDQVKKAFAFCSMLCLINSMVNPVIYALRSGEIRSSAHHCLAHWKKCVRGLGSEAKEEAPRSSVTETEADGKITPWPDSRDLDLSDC
PROCEDURE DETAILS: In vitro binding assay using hCB2-CHO membranes, [3H]-CP-55,940 displacement (Protocol IV)
Parameters: expressed in transfected cells; host or cells: CHO (hCB2-CHO, generated in-house)
CONDITION SUMMARY: 1 h, read-out: % Displacement Protocol IV
Give bare numbers, in %.

{"COMPOUND": "O=C(N[C@@H](CO)c1ccccc1)c1nn(-c2ccc(F)cc2F)c2c1C1CCC2C1 (stereo partly shown)", "MEASUREMENT KIND": "inhibition at 0.3 µM", "UNITS LABEL": "%", "MEAS VALUE": 67.8}
{"COMPOUND": "CC[C@H](NC(=O)c1nn(-c2ccc(F)cc2F)c2c1C1CC3CC(C1)CC2C3)c1ccccc1", "MEASUREMENT KIND": "inhibition at 0.3 µM", "UNITS LABEL": "%", "MEAS VALUE": 60.3}
{"COMPOUND": "O=C(NCc1ccc(F)cc1F)c1nn(-c2ccc(Cl)cc2)c2c1C1CC3CC(C1)CC2C3", "MEASUREMENT KIND": "inhibition at 0.3 µM", "UNITS LABEL": "%", "MEAS VALUE": 31.7}

Note: attention shifts to another entry.
Answer with the recorded inhibition at 0.3 µM for the compound listed here: O=C(NC1(c2ccccc2)CC1)c1nn(-c2ccc(F)cc2F)c2c1C1CCC2C1 (stereo not shown) 86.6

* * *

Please provide measured melting point for the entries that follow.

Please review the entries below; each comes with its answer.
{"MOLECULE": "CC12CCC(C1)C(C)(C)C2NC(=O)c1nn(-c2ccc(F)cc2F)c2c1C1CCC2C1 (stereo not shown)", "MEAS VALUE": "114 to 117 °C"}
{"MOLECULE": "O=C(NCc1c(F)cccc1F)c1nn(-c2ccc(Cl)cc2)c2c1C1CC3CC(C1)CC2C3", "MEAS VALUE": "166 to 167 °C"}
{"MOLECULE": "O=C(NCc1ccccc1)c1nn(-c2ccc(Cl)cc2)c2c1C1CCC2C1 (stereo not shown)", "MEAS VALUE": "112 to 115 °C"}

Respond only with melting point recorded for O=C(Nc1ccc(Cl)cc1)c1nn(-c2ccc(Cl)cc2)c2c1C1CCC2C1 (stereo not shown) 182 to 184 °C

* * *

EXPERIMENTAL SYSTEM: UniProt P20272
PROCEDURE DETAILS: Rat CB1 receptor binding using brain membrane, [3H]SR141716A displacement (Protocol I)
Parameters: CB1 receptor present in a rat brain membrane preparation; from tissue; host or cells: rat brain membrane; dose or concentration left out as unconfirmed
CONDITION SUMMARY: 1 h; rat brain membrane, [3H]SR141716A displacement; read-out: % Displacement Protocol I
MEASUREMENT KIND: inhibition (%)
Give bare numbers, in %.

Recorded inhibition, per entry:
{"COMPOUND": "O=C(NNc1cccc(F)c1)c1nn(-c2ccc(Cl)cc2)c2c1C1CC3CC(C1)CC2C3", "EXPERIMENTAL SYSTEM": "UniProt P20272", "MEAS VALUE": 59.7}
{"COMPOUND": "O=C(NNc1ccc(Cl)cc1Cl)c1nn(-c2ccccc2Cl)c2c1C1CC3CC(C1)CC2C3", "EXPERIMENTAL SYSTEM": "UniProt P20272", "MEAS VALUE": 16.4}
{"COMPOUND": "O=C(NC1CCCCC1)c1nn(-c2ccccc2)c2c1C1CCC2C1 (stereo not drawn)", "EXPERIMENTAL SYSTEM": "UniProt P20272", "MEAS VALUE": 28.2}
{"COMPOUND": "O=C(NCC1CCCCC1)c1nn(-c2ccc(Cl)cc2Cl)c2c1C1CCC2C1 (stereo not drawn)", "EXPERIMENTAL SYSTEM": "UniProt P20272", "MEAS VALUE": 73.9}
{"COMPOUND": "O=C(NNc1ccccc1Cl)c1nn(-c2ccc(Cl)cc2Cl)c2c1C1CCC2C1 (stereo not drawn)", "EXPERIMENTAL SYSTEM": "UniProt P20272", "MEAS VALUE": 73.5}

We now examine a further compound.
Report inhibition, nothing else, for this compound: O=C(NNc1ccccc1)c1nn(-c2ccc(Cl)cc2)c2c1C1CC3CC(C1)CC2C3 65.4

* * *

EXPERIMENTAL SYSTEM: CB1 (Rattus norvegicus, UniProt P20272)
Sequence (P20272 whole entry): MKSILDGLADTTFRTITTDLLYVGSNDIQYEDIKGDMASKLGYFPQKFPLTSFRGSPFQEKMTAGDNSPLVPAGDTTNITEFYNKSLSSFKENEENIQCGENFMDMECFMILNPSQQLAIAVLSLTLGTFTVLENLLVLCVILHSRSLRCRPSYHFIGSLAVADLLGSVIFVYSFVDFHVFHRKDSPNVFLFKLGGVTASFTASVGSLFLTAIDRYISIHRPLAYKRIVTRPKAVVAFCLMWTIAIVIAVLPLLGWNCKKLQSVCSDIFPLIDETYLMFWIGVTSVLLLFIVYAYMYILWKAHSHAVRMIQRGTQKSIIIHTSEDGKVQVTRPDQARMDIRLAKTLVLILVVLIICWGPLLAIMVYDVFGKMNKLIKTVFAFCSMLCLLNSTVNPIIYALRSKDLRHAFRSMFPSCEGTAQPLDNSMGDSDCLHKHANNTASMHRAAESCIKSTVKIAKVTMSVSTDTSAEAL
PROCEDURE DETAILS: Rat CB1 receptor binding using brain membrane, [3H]SR141716A displacement (Protocol I)
Design: CB1 receptor present in a rat brain membrane preparation; from tissue; host or cells: rat brain membrane; dose or concentration left out as unconfirmed
CONDITION SUMMARY: 1 h; rat brain membrane, [3H]SR141716A displacement; read-out: % Displacement Protocol I
For each entry below, report its inhibition value.
Give bare numbers, in %.

Use the examples below as a reference point.
{"MOLECULE": "O=C(NNc1ccc(Cl)cn1)c1nn(-c2ccc(Cl)cc2)c2c1C1CC3CC(C1)CC2C3", "MEAS VALUE": 20.5}
{"MOLECULE": "O=C(NN1CCCCC1)c1nn(-c2ccccc2)c2c1C1CCC2C1 (centres unmarked)", "MEAS VALUE": 9}
{"MOLECULE": "O=C(NCC1CCCCC1)c1nn(-c2ccc(Cl)cc2)c2c1C1CC3CC(C1)CC2C3", "MEAS VALUE": 82.5}
{"MOLECULE": "O=C(NNc1ccccc1Br)c1nn(-c2ccc(Cl)cc2Cl)c2c1C1CC3CC(C1)CC2C3", "MEAS VALUE": 65.6}
{"MOLECULE": "O=C(Nc1ccccc1)c1nn(-c2ccc(Cl)cc2Cl)c2c1C1CCC2C1 (centres unmarked)", "MEAS VALUE": 23.5}
{"MOLECULE": "O=C(NCc1ccccc1)c1nn(-c2ccccc2Br)c2c1C1CC3CC(C1)CC2C3", "MEAS VALUE": 27.3}
{"MOLECULE": "O=C(NCc1ccc(F)cc1)c1nn(-c2ccc(Cl)cc2Cl)c2c1C1CCC2C1 (centres unmarked)", "MEAS VALUE": 46}

Enter inhibition (test system CB1 (Rattus norvegicus, UniProt P20272)) for O=C(NN1CCCCC1)c1nn(-c2ccccc2Br)c2c1C1CCC2C1 (centres unmarked) -14.6
